- EXPERIMENTAL_TARGET: recombinant human FLAP protein (Homo sapiens)
- Construct: made in house; host or cells: Sf9 insect cells (100,000×g membrane pellet used)
- Sequence (P20292 whole entry): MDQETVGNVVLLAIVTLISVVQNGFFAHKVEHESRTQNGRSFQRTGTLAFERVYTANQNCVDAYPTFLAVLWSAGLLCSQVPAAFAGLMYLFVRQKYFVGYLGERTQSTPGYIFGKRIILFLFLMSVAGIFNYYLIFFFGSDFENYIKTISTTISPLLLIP
- PROCEDURE_TEXT: FLAP binding assay (SPA, displacement of [125I]L-691,831)
- ASSAY_CONTEXT: membranes of sf9 cells expressing recombinant human FLAP; [125I]L-691,831 probe; read-out: FLAP binding IC50
pIC50: −log10 of the molar value.
PARAMETER: pIC50

For orientation, consider the following solved cases.
{"COMPOUND": "CC(C)(O)CNc1ccc(-c2nc(C(C)(c3ccc(-c4cnc(N)nc4)cc3)C3CC3)no2)cn1 (stereo not shown)", "PARAMETER": "pIC50", "TEST_VALUE": 8.68}
{"COMPOUND": "CC(C)C(C)(c1ccc(-c2cnc(N)nc2)cc1)c1noc(CCC(C)(C)C(=O)O)n1 (stereo not shown)", "PARAMETER": "pIC50", "TEST_VALUE": 7.32}
{"COMPOUND": "CN(C)C(=O)Cn1cc(-c2nc([C@@](C)(c3ccc(-c4cnc(N)c(C#N)n4)cc3)C3CC3)no2)cn1", "PARAMETER": "pIC50", "TEST_VALUE": 8.15}
{"COMPOUND": "CC(C)C(C)(c1ccc(-c2cnc(N)c(CO)c2)cc1)c1noc(-c2cccnc2)n1 (stereo not shown)", "PARAMETER": "pIC50", "TEST_VALUE": 8.96}
{"COMPOUND": "CC(C)C(C)(c1ccc(-c2cnc(N)nc2)cc1)c1noc(N(C)CCN(C)C)n1 (stereo not shown)", "PARAMETER": "pIC50", "TEST_VALUE": 7.03}
{"COMPOUND": "Cc1nc(N)cnc1-c1ccc(C(C)(c2noc(-c3cnn(CC(=O)N(C)C)c3)n2)C2CC2)cc1 (stereo not shown)", "PARAMETER": "pIC50", "TEST_VALUE": 7.55}

I = C[C@](c1ccc(-c2cnc(N)nc2)cc1)(c1noc(-c2cn[nH]c2)n1)C1CC1
II = Cn1nccc1-c1nc(C(C)(c2ccc(-c3cnc(N)nc3)cc2)C2CC2)no1 (stereo not shown)
Query: Between the two listed entries I and II , which has its pIC50 at the higher number? Could you answer with the label of the item you picked?
Response: II
